Documented GI50 across a set of compounds
system: SK-MEL-5; assay: NCI tumour cell line growth inhibition, 48 h
Active and inactive are the calls of the source. Rule as the data show it: active = GI50 up to about 1.1 µM and inactive = higher.
VALUE_TYPE: GI50

[
  {
    "COMPOUND": "CCN(CC)CCOCCn1c2c(c3ccccc31)CCCC2",
    "OBSERVED_RESULT": "13.5 µM (inactive)"
  },
  {
    "COMPOUND": "CN1CCN(c2nc3cc(F)ccc3n3cccc23)CC1",
    "OBSERVED_RESULT": "20.6 µM (inactive)"
  },
  {
    "COMPOUND": "O=C1CNNC(Cn2nc(-c3ccccc3)c3ccccc3c2=O)=N1",
    "OBSERVED_RESULT": "> 100 µM (inactive)"
  },
  {
    "COMPOUND": "COC(=O)C1=C(C)NC(C)=C([N+](=O)[O-])C1c1cccc(N=O)c1 (stereo not drawn)",
    "OBSERVED_RESULT": "15.6 µM (inactive)"
  },
  {
    "COMPOUND": "C=C1CCC23CC(CC[C@@H]2[C@@]12C[C@@H](c1ccoc1)OC2=O)OC3=O (stereo partly drawn)",
    "OBSERVED_RESULT": "> 100 µM (inactive)"
  },
  {
    "COMPOUND": "CCCCCCC(O)C(=O)OC1C2C(CC1(C)C)C(O)C13OC1C(O)C1(CO1)[C@@]23C (stereo partly drawn)",
    "OBSERVED_RESULT": "13.4 µM (inactive)"
  },
  {
    "COMPOUND": "COC(=O)c1c2c(cc3c1CCC3)CCC2",
    "OBSERVED_RESULT": "15.9 µM (inactive)"
  },
  {
    "COMPOUND": "CN1C(=O)C(O)C[C@@H]1c1ccc(F)cc1 (stereo partly drawn)",
    "OBSERVED_RESULT": "> 100 µM (inactive)"
  },
  {
    "COMPOUND": "Cc1ccc(C(=O)Nc2ccc(S(=O)(=O)O)c3cc(S(=O)(=O)O)cc(S(=O)(=O)O)c23)cc1NC(=S)Nc1cc(C(=O)Nc2ccc(S(=O)(=O)O)c3cc(S(=O)(=O)O)cc(S(=O)(=O)O)c23)ccc1C",
    "OBSERVED_RESULT": "> 75 µM (inactive)"
  },
  {
    "COMPOUND": "CC(C)(C)NC(=O)CCC1C(C(=O)NC(C)(C)C)C2(Cl)C(Cl)=C(Cl)C1(Cl)C2(Cl)Cl (stereo not drawn)",
    "OBSERVED_RESULT": "> 100 µM (inactive)"
  },
  {
    "COMPOUND": "C=CCC1(C(=O)OC)CCC/C(=N\\O)C1 (stereo not drawn)",
    "OBSERVED_RESULT": "> 10 µM (inactive)"
  },
  {
    "COMPOUND": "CCCCCCCCOC(CO)CO",
    "OBSERVED_RESULT": "> 100 µM (inactive)"
  },
  {
    "COMPOUND": "O=C(Nc1cc(Cl)c(Cl)cc1Cl)C(=O)C(C(=O)c1ccc2ccccc2c1)C1OC(=O)c2ccccc21 (stereo not drawn)",
    "OBSERVED_RESULT": "11.8 µM (inactive)"
  }
]
